target: Diaphorase; assay: peptide array, 1 uM diaphorase, binding without FAD / with FAD
metricName: noFAD/FAD

See these solved cases before continuing.
DLFQLVFSGSG; 0.641
RFGQNLPLGGSG; 2.76

1. RLYPQGYGGSG
2. VLSLNQVYSEGSG
3. RPLQVQRGGS
Arrange items by their noFAD/FAD values in increasing order. API: response body holds the labels in the requested order.
3, 2, 1

A. YSALFGLQEDGSG
B. RYYPAFSGGSG
Lowest noFAD/FAD? choose A or B Indicate your choice by writing its label.
A

P. QLLQLLFGGSG
Q. RYNLYKPSDGSG
Lab note: record which item had the higher noFAD/FAD, P or Q . Indicate your choice by writing its label.
Q
